molecular target: K-Ras G13C (Homo sapiens (Human), UniProt P01116+P62937, G13C); assay: Ras-Raf (BRAF RBD) disruption / FRET / MOA assay, KRAS G13C; format: biochemical; conditions: KRAS G13C; Ras-Raf disruption/FRET/MOA assay; read-out: IC50* KRAS G13C FRET data
Sequence (P01116-2 other isoform, or with tags, fused parts or gaps G13C): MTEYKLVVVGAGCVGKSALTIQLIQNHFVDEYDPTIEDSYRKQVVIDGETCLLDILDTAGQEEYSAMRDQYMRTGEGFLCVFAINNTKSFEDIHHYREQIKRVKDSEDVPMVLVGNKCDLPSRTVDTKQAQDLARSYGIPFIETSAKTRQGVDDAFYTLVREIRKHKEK
Sequence (P62937 whole entry): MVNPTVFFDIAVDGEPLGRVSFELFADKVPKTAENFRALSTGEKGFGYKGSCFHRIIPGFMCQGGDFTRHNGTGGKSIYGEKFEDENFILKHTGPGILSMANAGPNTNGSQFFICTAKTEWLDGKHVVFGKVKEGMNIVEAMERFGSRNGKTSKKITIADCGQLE
property-name: IC50

INSERT INTO assay_data (compound, property_name, reading) VALUES
  ('CCn1c(-c2cccnc2[C@H](C)OC)c2c3cc(ccc31)-c1cccc(c1)C[C@H](NC(=O)[C@H](C(C)C)N(C)C(=O)C1CCN(C(=O)C#C[C@@H]3CC(F)(F)CN3C)C1)C(=O)N1CCC[C@H](N1)C(=O)OCC(C)(C)C2 (some centres unmarked) [Example A526]', 'IC50', '1 to 10 µM'),
  ('CCn1c(-c2cccnc2)c2c3cc(ccc31)-c1csc(n1)C[C@H](NC(=O)[C@H](C(C)C)N(C)C(=O)[C@H]1CCN(C(=O)C#CCN3CCOCC3)C1)C(=O)N1CCC[C@H](N1)C(=O)OCC(C)(C)C2 [Example A190]', 'IC50', '> 10 µM'),
  ('CCn1c(-c2cccnc2COC)c2c3cc(ccc31)-c1cc(C)cc(c1)C[C@H](NC(=O)[C@H](C(C)C)N(C)C(=O)[C@H]1CCN(C(=O)C#CCN(C)C)C1)C(=O)N1CCC[C@H](N1)C(=O)OCC(C)(C)C2 [Example A156]', 'IC50', '1 to 10 µM'),
  ('CCn1c(-c2cccnc2[C@H](C)OC)c2c3cc(ccc31)-c1cccc(c1)C[C@H](NC(=O)[C@H](C(C)C)N(C)C(=O)[C@H]1CCN(C(=O)C#CC(C)(C)N3CCC(F)(F)C3)C1)C(=O)N1CCC[C@H](N1)C(=O)OCC(C)(C)C2 (atropisomer, axis not shown) [Example A325]', 'IC50', '1 to 10 µM'),
  ('C=CC(=O)N1CC[C@H](C(=O)N(C)[C@H](C(=O)N[C@H]2Cc3cc(O)cc(c3)-c3ccc4c(c3)c(c(-c3cccnc3[C@@H](OC)C3CC3)n4CC)CC(C)(C)COC(=O)[C@@H]3CCCN(N3)C2=O)C(C)C)C1 (atropisomer, axis not shown) [Example A207]', 'IC50', '0.1 to 1 µM'),
  ('C=CC(=O)N1CCO[C@]2(CCN(C(=O)N(C)[C@H](C(=O)N[C@H]3Cc4nc(cs4)-c4ccc5c(c4)c(c(-c4cccnc4[C@H](C)OC)n5CC(F)(F)F)CC(C)(C)COC(=O)[C@@H]4CCCN(N4)C3=O)C(C)C)C2)C1 (atropisomer, axis not shown) [Example A593]', 'IC50', '0.1 to 1 µM'),
  ('C=CC(=O)N1CC[C@]2(CCN([C@H](C(=O)N[C@H]3Cc4cccc(c4)-c4ccc5c(c4)c(c(-c4cccnc4[C@H](C)OC)n5CC)CC(C)(C)COC(=O)[C@@H]4CCCN(N4)C3=O)C(C)C)C2=O)C1 (atropisomer, axis not shown) [Example A470]', 'IC50', '0.1 to 1 µM'),
  ('CCn1c(-c2cccnc2[C@H](C)OC)c2c3cc(ccc31)-c1cccc(c1)C[C@H](NC(=O)[C@H](C(C)C)N1CC[C@@]3(CCN(C(=O)C#C[C@H]4COCCN4C)C3)C1=O)C(=O)N1CCC[C@H](N1)C(=O)OCC(C)(C)C2 (atropisomer, axis not shown) [Example A551]', 'IC50', '0.1 to 1 µM');

Values compiled from patent US11566007B2.
